Please respond with reported IC50 for every item in the list.
Tested on: RAW264.7
EXPERIMENT SUMMARY: Inhibition of LPS-induced TNF-alpha production in mouse RAW264.7 cells preincubated for 30 mins prior to LPS challenge measured after 24 hrs by ELISA
Type: functional, cell-based
EXPERIMENTAL PARAMETERS: Mus musculus, RAW264.7; read-out: IC50
Numbers only; they are read as nM.

Problem: State the recorded IC50 for this entry: `CCC(=O)Nc1ccc2c(c1)cc(C(=O)Nc1ccc(N3CCN(C)CC3)cc1)n2Cc1ccc(C(F)(F)F)cc1`
Result: 4100

Problem: State the recorded IC50 for this entry: `CN1CCN(c2ccc(NC(=O)c3cc4cc(NC(=O)N(C)C)ccc4n3Cc3ccc(C(F)(F)F)cc3)cc2)CC1`
Result: 2670

Problem: State the recorded IC50 for this entry: `C=CC(=O)Nc1ccc2c(c1)cc(C(=O)Nc1ccc(N3CCN(C)CC3)cc1)n2Cc1ccc(C(F)(F)F)cc1`
Result: 1050

Problem: State the recorded IC50 for this entry: `CN1CCN(c2ccc(NC(=O)c3cc4cc(NC(=O)c5ccco5)ccc4n3Cc3ccc(C(F)(F)F)cc3)cc2)CC1`
Result: 2660

Problem: State the recorded IC50 for this entry: `CN1CCN(c2ccc(NC(=O)c3cc4cc(NC(=O)CCl)ccc4n3Cc3ccc(C(F)(F)F)cc3)cc2)CC1`
Result: 6030

Problem: State the recorded IC50 for this entry: `CN1CCN(c2ccc(NC(=O)c3cc4cc([N+](=O)[O-])ccc4n3Cc3ccc(C(F)(F)F)cc3)cc2)CC1`
Result: 2740

Problem: State the recorded IC50 for this entry: `CN1CCN(c2ccc(NC(=O)c3cc4cc(NS(C)(=O)=O)ccc4n3Cc3ccc(C(F)(F)F)cc3)cc2)CC1`
Result: 1970
